Experiment: In vitro rat microsomal stability assay
Assay type: in vitro ADME, rat (Sprague-Dawley)
Details: Sprague-Dawley, rat, microsomes, 0.5 h, 0.5 μM, pH 7.4
Define the label as fulfilled when RAT MICROSOMAL STABILITY (% REMAINING AFTER 30 MINUTES) is strictly less than 20% and as not fulfilled in all remaining cases.

Consider the worked cases shown below.
Molecule	Class name
OC(c1ccccn1)C1(c2ccc(Cl)c(C(F)(F)F)c2)CC(F)(F)C1 (stereo not shown) [Example 138]	fulfilled
OC(c1ccccn1)C1(c2ccc(Cl)c(Cl)c2)CCCCC1 (stereo not shown) [Example 43]	fulfilled
OC1CC(c2ccc(OC(F)(F)F)cc2)(C(O)c2ccccn2)C1 (single isomer, unassigned) [Example 132]	not fulfilled
OC(c1ccccn1)C1(c2ccc(Cl)c(Cl)c2)CCNCC1 (stereo not shown) [Example 140]	not fulfilled
O[C@@H](c1ncccn1)C1(c2ccc(Cl)c(Cl)c2)CCC1 [Example 40]	fulfilled

State whether 20% exceeds RAT MICROSOMAL STABILITY (% REMAINING AFTER 30 MINUTES) recorded for OC(c1ccccn1)C1(c2ccc(C(F)(F)F)cn2)CCC1 (stereo not shown) [Example 115] .
not fulfilled

###

Biological target: human TRPV3 (Homo sapiens, UniProt Q8NET8)
Construct: expressed in transfected cells
Test: In vitro antagonism of recombinant human TRPV3 activation (FLIPR Tetra calcium assay)
Type: cell-based
Settings: HEK293 cells stably expressing human TRPV3; agonist 2-APB at 80 μM; actual measured value shown parenthetically; in most cases average of at least two runs; read-out: IC50
Protocol: Test compounds were evaluated for ability to antagonize the activation of recombinant human TRPV3 using FLIPR® Tetra cellular screening. […] A double-addition protocol was used. […] Each test compound evaluated was first dissolved in DMSO to prepare a 10 mM stock solution. […] Changes in fluorescence were measured over time using the FLIPR® instrument. The intensity of the fluorescence was captured and digitally transferred to an interfaced computer. […]
Experimental readout: pIC50
Give bare numbers, as −log10 of the molar value.

Compound	pIC50
NC1CCC1C(O)C1(c2cccc(C(F)(F)F)c2)CCC1 (centres unmarked) [Example 213]	5.49

Would you kindly share the measured pIC50 for OC(c1ccccn1)C1(c2cccc(OC(F)(F)F)c2)CCCO1 (single isomer, unassigned) [Example 92] ?
7.00

###

Target: human TRPV3 (Homo sapiens, UniProt Q8NET8)
Construct: expressed in transfected cells
Experiment: In vitro antagonism of recombinant human TRPV3 activation (FLIPR Tetra calcium assay)
Format: cell-based
Conditions: HEK293 cells stably expressing human TRPV3; agonist 2-APB at 80 μM; actual measured value shown parenthetically; in most cases average of at least two runs; read-out: IC50
Experimental readout: IC50 (µM)
Give bare numbers, in µM.

Compound	Tested target	Experimental readout	Measured number
OC(c1ccccn1)C1(c2ccc(Cl)c(Cl)c2)CC(F)(F)C1 (centres unmarked)	human TRPV3 (Homo sapiens, UniProt Q8NET8)	IC50	0.78

Consider now this further compound.
Lookup: IC50 / human TRPV3 (Homo sapiens, UniProt Q8NET8) / O[C@H](c1ccccn1)[C@]1(c2ccc(C(F)(F)F)cc2)C[C@H](O)C1
5.25

###

Assay: In vitro human microsomal stability assay
Assay type: in vitro ADME
Settings: human, microsomes, 0.5 h, 0.5 μM, pH 7.4
Give measured HUMAN MICROSOMAL STABILITY (% REMAINING AFTER 30 MINUTES) for each item. Keep answers brief.
Give bare numbers, in %.

Below, 2 molecules whose answers are already recorded.
Molecule	Measured number
O[C@H](c1ccccn1)[C@]1(c2ccc(Cl)c(Cl)c2)CCO1 [Example 136]	24
OC(c1ccccn1)C1(C2CCc3ccccc32)CCC1 (centres unmarked) [Example 55]	1.6

// each molecule listed below needs its HUMAN MICROSOMAL STABILITY (% REMAINING AFTER 30 MINUTES)
1. OC(C1CCCc2cccnc21)C1(c2ccc(OC(F)(F)F)cc2)CCC1 (single isomer, unassigned) [Example 177]
2. C[C@]1(O)C[C@@](c2cccc(OC(F)(F)F)c2)([C@H](O)c2ccccn2)C1 [Example 262]

1: 0.12; 2: 48

###

Molecular target: human TRPV3 (Homo sapiens)
Construct: expressed in transfected cells
Sequence (Q8NET8 1-790): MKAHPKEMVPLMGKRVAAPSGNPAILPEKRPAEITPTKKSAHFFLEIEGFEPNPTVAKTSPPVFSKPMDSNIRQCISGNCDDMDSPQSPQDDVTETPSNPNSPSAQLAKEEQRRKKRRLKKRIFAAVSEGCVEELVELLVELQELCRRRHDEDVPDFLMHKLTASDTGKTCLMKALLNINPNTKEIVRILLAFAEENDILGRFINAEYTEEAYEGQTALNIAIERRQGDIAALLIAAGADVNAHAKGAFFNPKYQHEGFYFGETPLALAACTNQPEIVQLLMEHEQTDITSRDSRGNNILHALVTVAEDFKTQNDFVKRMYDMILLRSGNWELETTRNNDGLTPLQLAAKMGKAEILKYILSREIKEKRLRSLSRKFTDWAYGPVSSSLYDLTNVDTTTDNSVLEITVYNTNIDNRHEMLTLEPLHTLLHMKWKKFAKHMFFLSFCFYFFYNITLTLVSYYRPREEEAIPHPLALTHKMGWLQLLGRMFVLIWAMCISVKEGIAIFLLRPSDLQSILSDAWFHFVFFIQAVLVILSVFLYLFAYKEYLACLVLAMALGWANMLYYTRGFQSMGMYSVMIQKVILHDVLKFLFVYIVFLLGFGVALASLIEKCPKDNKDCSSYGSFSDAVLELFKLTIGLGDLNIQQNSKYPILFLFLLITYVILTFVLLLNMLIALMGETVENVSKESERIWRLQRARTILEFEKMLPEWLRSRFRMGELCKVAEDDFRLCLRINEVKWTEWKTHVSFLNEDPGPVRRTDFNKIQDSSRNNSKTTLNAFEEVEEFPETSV
Assay: In vitro antagonism of recombinant human TRPV3 activation (FLIPR Tetra calcium assay)
Assay type: cell-based
Details: HEK293 cells stably expressing human TRPV3; agonist 2-APB at 80 μM; actual measured value shown parenthetically; in most cases average of at least two runs; read-out: IC50
Give measured IC50 for each item. Keep answers brief.
One number for each entry, in nM.

Compound	IC50 (nM)
COC1(OC)CC(c2ccc(OC(F)(F)F)cc2)(C(O)c2ccccn2)C1 (stereo not drawn)	330
OC(CC1(c2ccc(Cl)cc2)CCC1)c1ccccn1 (stereo not drawn)	4970
OC(c1ccccn1)C1(c2cccc(OC(F)(F)F)c2)CCCO1 (single isomer, unassigned) [Example 93]	590

// each compound listed below needs its IC50
1. OC(CC1(c2ccc(F)cc2)CCC1)c1ccccn1 (stereo not drawn)
2. OC(c1ccccn1)C1(c2ccc(Cl)c(Cl)c2)CCCCC1 (stereo not drawn)
3. OC(c1ccccn1)C1(c2ccc(F)c(F)c2)CCC1 (stereo not drawn)

1: 12000; 2: 660; 3: 460

###

Experiment: In vitro rat microsomal stability assay
Type: in vitro ADME, rat (Sprague-Dawley)
Details: Sprague-Dawley, rat, microsomes, 0.5 h, 0.5 μM, pH 7.4
Experimental readout: RAT MICROSOMAL STABILITY (% REMAINING AFTER 30 MINUTES) (%)
One number for each entry, in %.

Below, 4 compounds whose answers are already recorded.
Compound	Measured number
CC(C)(C)OC(=O)N1CCC(c2ccc(OC(F)(F)F)cc2)(C(O)c2ccccn2)CC1 (centres unmarked)	0.93
O=C1CC(c2ccc(C(F)(F)F)cc2)([C@H](O)c2ccccn2)C1 (single isomer, unassigned)	81
OC(c1ccccn1)C1(C2=COCCC2)CCC1 (single isomer, unassigned)	0.48
OC(c1ccccn1)C1(c2ccc(Cl)c(Cl)c2)CCOCC1 (centres unmarked)	12

// each compound listed below needs its RAT MICROSOMAL STABILITY (% REMAINING AFTER 30 MINUTES)
1. OC(c1ccccn1)C1(c2ccnc(C(F)(F)F)c2)CC2(C1)OCCO2 (centres unmarked)
2. O[C@H](c1ccccn1)C1(c2ccc(C(F)(F)F)cc2)CCC1

1. 2.0
2. 13

###

Give measured HUMAN MICROSOMAL STABILITY (% REMAINING AFTER 30 MINUTES) for each item. Keep answers brief.
Assay: In vitro human microsomal stability assay
Format: in vitro ADME
Conditions: human, microsomes, 0.5 h, 0.5 μM, pH 7.4
One number for each entry, in %.

Molecule	Measured number
Cc1cccc(C2(C(O)c3ccccn3)CCCO2)c1 (centres unmarked) [Example 91]	46

Consider now this further molecule.
Would you kindly share the measured HUMAN MICROSOMAL STABILITY (% REMAINING AFTER 30 MINUTES) for OC(CC1(c2ccc(OC(F)(F)F)cc2)CCC1)c1ccccn1 (centres unmarked) [Example 76] ?
39

###

Give measured HUMAN MICROSOMAL STABILITY (% REMAINING AFTER 30 MINUTES) for each item. Keep answers brief.
Experiment: In vitro human microsomal stability assay
Assay type: in vitro ADME
Conditions: human, microsomes, 0.5 h, 0.5 μM, pH 7.4
One number for each entry, in %.

Below, 2 molecules whose answers are already recorded.
Molecule	Measured number
O[C@H](c1ccccn1)C1(c2ccc(OC(F)(F)F)cc2)CC(F)(F)C1 [Example 128]	59
CC(C)(C)OC(=O)N1CC(c2ccc(C(F)(F)F)cc2)(C(O)c2ccccn2)C1 (stereo not shown) [Example 153]	49

Would you kindly share the measured HUMAN MICROSOMAL STABILITY (% REMAINING AFTER 30 MINUTES) for OC(c1ccccn1)C1(c2cccc(F)c2)CCC1 (stereo not shown) [Example 2] ?
17
